- PROTOCOL_NOTES: qHTS for differential inhibitors of proliferation of Plasmodium falciparum line Dd2 (AID 1882);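 further: compound exposure of 72 h on infected erythrocytes; nearly all actives have a fitted effect of over 65% in size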
- DETAILS: Plasmodium falciparum Dd2 proliferation inhibition; series mostly up to 28.7 µM
Records with an inconclusive call do not appear. Activity calls are given as the source filed them. The call rests on the fitted dose curve; in most records, active means well fitted inhibition curve with a large enough effect; inconclusive means small, poorly fitted or top-dose-only effect; inactive means flat fitted curve, though single readings scatter.
MEASURED_ENDPOINT: outcome

COMPOUND: O=c1ccn([C@@H]2O[C@H](COP(=O)(O)OP(=O)(O)O)[C@@H](O)[C@H]2O)c(=O)[nH]1
READOUT_VALUE: inactive
--
COMPOUND: COc1ccc2c(c1)CCC1C2CC[C@@]2(C)C1CC[C@@H]2NCCCCCCN1C(=O)C=CC1=O (stereo partly drawn)
READOUT_VALUE: inactive
--
COMPOUND: c1ccc2nc(C3=NCCN3)ccc2c1
READOUT_VALUE: inactive
